B1: SETD8 (parent)
chain: GKQAPRKKAQGKTQQNRKLTDFYP

variants of: B1; test: protein stability index of a GFP-peptide fusion (GPS, HEK-293T) (PSI 1-6); higher = more stable; conditions: c terminus: a fixed tail appended;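 note: lentivirally expressed fusions sorted by FACS into six bins by GFP to DsRed ratio, PSI derived from sequencing read proportions per bin multiplied by bin number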
Quick rule for you: protein stability index at 3 or higher means y, lower means n.

- N16Y: n
- K18F: y
- K7M: y
- L19D: y
- Q3V: n
- Q14R: n
- T20C: n
- Y23S: y
- G1L: n
- Q14W: y
- Q10A: y
- G1Q: y
- D21H: y
- K12Y: y
- R6A: y
